Target: Nox4 (Homo sapiens)
Construct: expressed in transfected cells
Sequence (Q9NPH5 1-578): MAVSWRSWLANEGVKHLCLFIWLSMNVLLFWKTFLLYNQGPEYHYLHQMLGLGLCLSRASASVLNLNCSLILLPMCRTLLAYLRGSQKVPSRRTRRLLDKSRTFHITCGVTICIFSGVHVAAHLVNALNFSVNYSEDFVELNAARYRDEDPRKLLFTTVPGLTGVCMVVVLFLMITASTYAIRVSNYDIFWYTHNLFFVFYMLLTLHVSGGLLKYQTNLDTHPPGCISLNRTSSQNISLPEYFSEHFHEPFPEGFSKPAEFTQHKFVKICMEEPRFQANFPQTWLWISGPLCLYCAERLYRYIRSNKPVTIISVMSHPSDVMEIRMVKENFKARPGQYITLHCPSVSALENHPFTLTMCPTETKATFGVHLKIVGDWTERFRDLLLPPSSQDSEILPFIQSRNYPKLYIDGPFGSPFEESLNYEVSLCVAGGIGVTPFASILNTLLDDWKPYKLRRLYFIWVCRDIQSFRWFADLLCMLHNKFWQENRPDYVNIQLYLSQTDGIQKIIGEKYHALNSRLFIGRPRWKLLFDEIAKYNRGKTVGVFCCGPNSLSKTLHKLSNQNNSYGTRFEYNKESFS
Sequence (P13498 1-195 partner): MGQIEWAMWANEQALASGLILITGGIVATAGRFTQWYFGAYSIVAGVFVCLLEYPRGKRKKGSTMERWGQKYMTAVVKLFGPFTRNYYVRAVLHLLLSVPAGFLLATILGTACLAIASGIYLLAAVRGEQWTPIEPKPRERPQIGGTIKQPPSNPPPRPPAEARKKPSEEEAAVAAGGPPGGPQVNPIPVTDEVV
Assay: Inhibition of Nox4-dependent H2O2 production in HEK/Nox4 cells, Amplex Red assay
Type: cell-based
Conditions: 10 μM final concentration, 1 h, HEK/Nox4 cells; DMSO vehicle = 1.000; n = 3-10; read-out: H2O2 production relative to vehicle control, Mean
recordedMetric: remaining activity at 10 µM (%)

Examples from the recorded data:
Specify reported remaining activity at 10 µM for the compound shown: `CN(C)S(=O)(=O)N1CCN(CCC(=O)N2CCc3ccccc32)CC1` 105

Specify reported remaining activity at 10 µM for the compound shown: `CCN(CC)C(=O)NCCN1CCc2ccccc21` 101

Specify reported remaining activity at 10 µM for the compound shown: CCN(CC)C(=O)NCC(C)N1CCc2ccccc21 (centres unmarked) 74.1

Specify reported remaining activity at 10 µM for the compound shown: `O=S(=O)(NCCN1CCc2ccccc21)c1ccc(Oc2ccc(C(F)(F)F)cn2)cc1` 49.1

1. O=S(=O)(c1ccc(OC(F)(F)F)cc1)N1CCN(CCN2CCc3ccccc32)CC1
2. O=C(CCN1CCN(S(=O)(=O)N2CCCCC2)CC1)N1CCc2ccccc21
Which value of remaining activity at 10 µM is greater, the one for 1 or the one for 2 ? To answer, give the label that identifies your chosen option. 2
(2: 99.7%, 1: 66.4%)

I. CC(C)(CNS(=O)(=O)c1ccc(C(F)(F)F)cc1)N1CCc2ccccc21
II. CCN(CC)S(=O)(=O)N1CCN(CC(=O)N2CCc3ccccc32)CC1
Given I and given II , which shows the smaller recorded remaining activity at 10 µM? To answer, give the label that identifies your chosen option. I

a. COc1ccc(S(=O)(=O)NCC(C)N2CCc3ccccc32)cc1 (centres unmarked)
b. CCN(CC)S(=O)(=O)NCCN1CCc2ccccc21
Which value of remaining activity at 10 µM is greater, the one for a or the one for b ? To answer, give the label that identifies your chosen option. b

A. CCN(CC)S(=O)(=O)NCC(C)(C)N1CCc2ccccc21
B. O=C(CN1CCN(c2ncccn2)CC1)N1CCc2ccccc21
Given A and given B , which shows the smaller recorded remaining activity at 10 µM? To answer, give the label that identifies your chosen option. A
